Molecular target: OATP2A1 (Homo sapiens)
Assay: OATP2A1 inhibition assay, cellular uptake of 5,6-Carboxy-SNARF with HEK293-OATP2A1 cells
Assay type: cell-based
Conditions: HEK293-OATP2A1 cells, 5,6-Carboxy-SNARF substrate, pH 7.4
endpoint name: IC50 (nM)

[[record]]
compound_string = "CCCCc1nc(Cl)c(CO)n1Cc1ccc(-c2ccccc2-c2nn[nH]n2)cc1"
value = 1210

[[record]]
compound_string = "Cc1ccc(C(=O)Nc2ccc(S(=O)(=O)O)c3cc(S(=O)(=O)O)cc(S(=O)(=O)O)c23)cc1NC(=O)c1cccc(NC(=O)Nc2cccc(C(=O)Nc3cc(C(=O)Nc4ccc(S(=O)(=O)O)c5cc(S(=O)(=O)O)cc(S(=O)(=O)O)c45)ccc3C)c2)c1"
value = 186

[[record]]
compound_string = "CCCc1nc(C(C)(C)O)c(C(=O)O)n1Cc1ccc(-c2ccccc2-c2nnn[nH]2)cc1"
value = 554


I. O=C(Nc1cccc2c(=O)cc(-c3nnn[nH]3)oc12)c1ccc(OCCCCc2ccccc2)cc1
II. COc1cc(C(=O)NS(=O)(=O)c2ccccc2C)ccc1Cc1cn(C)c2ccc(NC(=O)OC3CCCC3)cc12
Given the listed items, does I or II have the lesser reported IC50? Mark your selection by writing its label.
I
(I: 148 nM, II: 1110 nM)

* * *

Molecular target: OATP2A1 (Homo sapiens, UniProt Q92959)
Assay: OATP2A1 inhibition assay, cellular uptake of 6-CF with HEK293-OATP2A1 cells
Type: cell-based
Settings: 6-CF substrate, pH 5.5
endpoint name: IC50 (nM)

[[record]]
compound_string = "CCCc1nc(C(C)(C)O)c(C(=O)O)n1Cc1ccc(-c2ccccc2-c2nnn[nH]2)cc1"
unit_spec = "nM"
value = 492


a. Cc1ccc(C(=O)Nc2ccc(S(=O)(=O)O)c3cc(S(=O)(=O)O)cc(S(=O)(=O)O)c23)cc1NC(=O)c1cccc(NC(=O)Nc2cccc(C(=O)Nc3cc(C(=O)Nc4ccc(S(=O)(=O)O)c5cc(S(=O)(=O)O)cc(S(=O)(=O)O)c45)ccc3C)c2)c1
b. O=C(Nc1cccc2c(=O)cc(-c3nnn[nH]3)oc12)c1ccc(OCCCCc2ccccc2)cc1
c. CCCCc1nc(Cl)c(CO)n1Cc1ccc(-c2ccccc2-c2nn[nH]n2)cc1
Your job: order these 3 records by IC50, ascending. Put the labels in the order asked and list them.
b, a, c
(b: 142 nM, a: 222 nM, c: 1280 nM)
